Provide the recorded pIC50 for the entries that follow.
Target: Tyrosine-protein phosphatase non-receptor type 22 (Homo sapiens, UniProt Q9Y2R2)
Sequence (Q9Y2R2 whole entry): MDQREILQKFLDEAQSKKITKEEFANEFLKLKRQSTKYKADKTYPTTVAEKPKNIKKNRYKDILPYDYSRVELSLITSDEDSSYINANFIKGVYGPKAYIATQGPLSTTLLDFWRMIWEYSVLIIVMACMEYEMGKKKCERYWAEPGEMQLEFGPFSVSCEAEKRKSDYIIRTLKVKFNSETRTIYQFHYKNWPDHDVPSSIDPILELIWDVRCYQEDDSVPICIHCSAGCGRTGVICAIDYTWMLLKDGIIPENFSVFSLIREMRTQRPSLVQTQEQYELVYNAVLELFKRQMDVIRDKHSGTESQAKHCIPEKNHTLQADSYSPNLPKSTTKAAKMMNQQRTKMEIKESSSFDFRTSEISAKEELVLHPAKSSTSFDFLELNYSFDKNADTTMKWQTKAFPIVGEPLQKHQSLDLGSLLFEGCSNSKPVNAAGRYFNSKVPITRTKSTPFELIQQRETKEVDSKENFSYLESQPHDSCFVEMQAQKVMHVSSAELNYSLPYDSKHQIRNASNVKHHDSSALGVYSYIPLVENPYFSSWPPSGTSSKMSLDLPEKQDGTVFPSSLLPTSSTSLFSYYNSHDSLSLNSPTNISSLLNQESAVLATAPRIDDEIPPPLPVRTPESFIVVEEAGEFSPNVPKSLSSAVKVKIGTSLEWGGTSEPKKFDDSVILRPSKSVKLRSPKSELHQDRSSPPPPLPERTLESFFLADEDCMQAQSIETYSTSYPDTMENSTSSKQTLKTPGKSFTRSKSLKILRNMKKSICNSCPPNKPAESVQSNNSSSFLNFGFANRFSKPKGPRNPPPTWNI
Test: lymphoid phosphatase LYP inhibitors – biochemical, selectivity assay for STEP inhibitor project, dose response (AID 624241)
pIC50: −log10 of the molar value.

Enquiry: Test system Tyrosine-protein phosphatase non-receptor type 22 (Homo sapiens, UniProt Q9Y2R2); read-out pIC50; what value for Cc1ccc(-c2nc(NC(=O)CSc3cc(C)c4ccccc4n3)ns2)cc1 ?
Return: < 4.00

Enquiry: Try this compound next: S=C(NCCc1ccccc1)Nc1c(Cl)cccc1Cl
Return: < 4.00

Enquiry: Another compound to look at: Cc1ccc(N=C(S)N(CCN(C)C)Cc2cccs2)c(C)c1
Return: < 4.00

Enquiry: OCCN1CCN(C(=S)c2ccc(Br)cc2)CC1 ?
Return: < 4.00

Enquiry: Query O=C(N/N=C/c1ccc(Cl)c([N+](=O)[O-])c1)c1ccc2c(c1)OCCO2 next
Return: < 4.00

====

Target: Tyrosine-protein phosphatase non-receptor type 22 (Homo sapiens, UniProt Q9Y2R2)
Test: lymphoid phosphatase LYP inhibitors – biochemical, selectivity assay for STEP inhibitor project, dose response (AID 624241)
Kindly state IC50 for each of the entries shown.

Enquiry: Data request, read-out IC50, for N=C1S/C(=C\c2ccc(O)cc2)C(=O)N1c1ccc(F)cc1
Return: > 100 µM

Enquiry: Same for O=C(N/N=C/c1ccc(OC(=O)c2cccs2)cc1)c1cccc(F)c1
Return: > 100 µM

Enquiry: Repeat for the following compound: Cc1c(CCC(=O)O)c(=O)oc2c(C)c(OCc3ccccc3Cl)ccc12
Return: > 100 µM

Enquiry: One more compound: CCOC(=O)N1CCC(N(CCN(C)C)C(=S)Nc2ccc(Oc3ccccc3)cc2)CC1
Return: > 100 µM

Enquiry: Repeat with O=C(N/N=C/C1C=CC=CC1=O)c1cccc([N+](=O)[O-])c1 (stereo unspecified)
Return: > 100 µM

Enquiry: Thanks! And S=C1N=C2C(=C3SCCS3)CCCC2C(c2ccccc2)N1 (stereo unspecified) ?
Return: > 100 µM
